molecular target: Human D1 Receptor (Homo sapiens (Human), UniProt P21728); experiment: Human D1 receptor binding assay ([3H]-SCH23390 competition binding); settings: read-out: Human D1 Receptor Binding, Ki (nM); Geometric mean of 2-4 determinations (unless otherwise indicated); over-expressing LTK human cell lines; 0.5 nM [3H]-SCH23390; 30 min at 37° C.; footnote a = single determination, b = geometric mean of ≧5 determinations
Sequence (P21728 whole entry): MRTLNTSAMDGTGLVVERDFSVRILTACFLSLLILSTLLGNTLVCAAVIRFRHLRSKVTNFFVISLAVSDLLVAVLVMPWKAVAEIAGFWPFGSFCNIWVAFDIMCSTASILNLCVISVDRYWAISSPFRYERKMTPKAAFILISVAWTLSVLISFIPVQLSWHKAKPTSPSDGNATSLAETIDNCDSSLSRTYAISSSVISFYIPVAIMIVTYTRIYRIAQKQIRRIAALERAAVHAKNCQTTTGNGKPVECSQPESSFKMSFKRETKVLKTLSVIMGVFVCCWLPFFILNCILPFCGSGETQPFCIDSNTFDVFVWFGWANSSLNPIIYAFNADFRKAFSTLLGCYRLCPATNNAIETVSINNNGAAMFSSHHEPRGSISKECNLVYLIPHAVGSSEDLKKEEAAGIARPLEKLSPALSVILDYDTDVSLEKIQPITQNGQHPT
Friendly reminder: Ki below 100 nM is yes (1), at or above is no (0).

# compound, assigned.category
rows = [
    ("Cc1cc(Oc2nccn3cccc23)ccc1-c1c(C)nnc2nccn12", "no (0)"),
    ("Cc1ncnc(C)c1-c1ccc(Oc2ncnn3cccc23)cc1Cl", "yes (1)"),
    ("Cc1ncnc(C)c1-c1ccc(Oc2ncnn3cccc23)cc1F", "yes (1)"),
    ("Cc1cc(Oc2ccnc3ccnn23)ccc1-c1c(C)ncnc1C", "no (0)"),
    ("Cc1n[nH]c(=O)c(C)c1-c1ccc(Oc2nccn3cccc23)cc1", "yes (1)"),
    ("Cc1cc(Oc2nccn3cccc23)ccc1-c1c(C)cnnc1C (single isomer, unassigned) [Example 13]", "yes (1)"),
    ("Cc1cc(Oc2nccn3nccc23)ccc1-c1c(C)ncnc1C", "yes (1)"),
    ("Cc1cc(Oc2nccn3cccc23)ccc1-c1c(C)cnnc1C (single isomer, unassigned) [Example 12]", "yes (1)"),
]

Query: Hello, is Ki of the following compound strictly smaller than 100 nM? "Cc1ncnc(C#N)c1-c1ccc(Oc2nccn3cccc23)cc1F"
Result: yes (1)

Query: Hello, is Ki of the following compound strictly smaller than 100 nM? "Cc1ncnc(C)c1-c1ccc(Oc2ncnn3cccc23)cc1C#N"
Result: no (0)

Query: Hello, is Ki of the following compound strictly smaller than 100 nM? "Cc1ncnc(C)c1-c1ccc(Oc2nccn3nccc23)cc1C#N"
Result: no (0)

Query: Hello, is Ki of the following compound strictly smaller than 100 nM? "Cc1ncnc(C)c1-c1ccc(Oc2nccn3cccc23)c(F)c1C"
Result: no (0)

Query: Hello, is Ki of the following compound strictly smaller than 100 nM? "Cc1cc(Oc2ncnn3cccc23)ccc1-c1c(C)ncc(=O)n1C"
Result: yes (1)

Query: Hello, is Ki of the following compound strictly smaller than 100 nM? "COc1cc(Oc2nccn3cccc23)ccc1-c1c(C)ncnc1C"
Result: yes (1)
